Reference source: paper PMC7851014

Method Summary: Ibrutinib and SMT-conjugate pharmacokinetics in human subjects (plasma of patients A and B)
Assay Setup: human, in vivo, 420 mg, Concentration, patient A, sample ID 6, T 0.8 h, 1xdd 420mg, group abs
Recorded Metric: concentration at 0.8 h (nM)

In [3]: df
Out[3]:
                                   compound         recorded_metric  result_units  recorded_measurement
0  C=CC(=O)N1CCC[C@@H](n2nc(-c3ccc(Oc4ccccc4)cc3)c3c(N)ncnc32)C1 [Ibrutinib, reference compound]  concentration at 0.8 h            nM                  14.6
